System: ovarian cancer cells with (OVCAR8, OVCAR4) or without (OVSAHO, CAOV3) MYC-HSF1 amplification
EXPERIMENT: Epigenetic inhibitor drug screen, cell viability (Cell Titer Blue)
Format: cell-based
TEST PARAMETERS: 10 uM, 48 hrs; average relative cell viability (vs 1% DMSO) of non-amplified cells (OVSAHO, CAOV3) minus that of MYC-HSF1 amplified cells (OVCAR8, OVCAR4); positive = greater response in amplified cells
METRIC NAME: Non Amp - AMP (POC) 10 uM

compound=CCOC(=O)c1ccc(NC(=O)O[C@H]2[C@H](OC(=O)Nc3ccc4c(c3)OCO4)[C@@H](OC(=O)Nc3ccc4c(c3)OCO4)[C@@H](OC)O[C@@H]2CO)cc1 experimental_value=−0.1565
compound="Nc1cc(F)ccc1NC(=O)c1ccc(CNC(=O)/C=C/c2cccnc2)cc1 [Chidamide]" experimental_value=33.85
compound=CC[C@@](C)(Nc1ccnc(-c2c[nH]c3ncccc23)n1)C(=O)NCC(F)(F)F experimental_value=7.322
compound=C=CC(=O)c1ccc2ccccc2c1 experimental_value=4.711
compound="Cc1cc(Nc2cc(N3CCN(C)CC3)nc(/C=C/c3ccccc3)n2)n[nH]1.O=C(O)C(O)C(O)C(=O)O [ENMD-2076 L-(+)-Tartaric acid]" experimental_value=−24.46
compound=C[C@H](NC(=O)CCc1nc2ccccc2c(=O)[nH]1)c1ccccc1 experimental_value=15.81
compound=COc1cc(-c2cn(C)c(=O)c3cnccc23)c(OC)cc1CN(C)C experimental_value=11
compound=O=C(O)CCNc1cc(N2CCc3ccccc3CC2)nc(-c2cccnc2)n1 experimental_value=0.5701
compound=O=C(Cc1ccccc1)Nc1ccc2oc(-c3ccc(Cl)cc3Cl)nc2c1 experimental_value=−11.2
compound=C[C@@H]1O[C@@H](Oc2c(-c3cc(O)c(O)c(O)c3)oc3cc(O)cc(O)c3c2=O)[C@H](O)[C@H](O)[C@H]1O experimental_value=−0.2723
compound=COC(=O)c1ccc(N2CCN(C)CC2)c(NC(=O)c2cccc(OC)c2)c1 experimental_value=1.921
compound=CCC(=O)Nc1cccc(Oc2nc(Nc3ccc(N4CCN(C)CC4)cc3OC)ncc2Cl)c1 experimental_value=−24.51
compound=Cc1cc(/N=N/c2ccc(S(=O)(=O)Nc3ccccn3)cc2)c(N)cc1O experimental_value=8.852
compound=CCc1cccc(CC)c1NC(=O)N1Cc2n[nH]c(NC(=O)c3ccc(N4CCN(C)CC4)cc3)c2C1 experimental_value=−11.28
compound=Cn1c2ccccc2c2c3c(c4c5ccccc5n(CCC#N)c4c21)CNC3=O experimental_value=5.045
compound="N#Cc1ccc(OC2CCC(NC(=O)CCSc3nc4ccccc4c(=O)[nH]3)CC2)cc1 (stereo not shown)" experimental_value=−7.406

###

Tested on: ovarian cancer cells with (OVCAR8, OVCAR4) or without (OVSAHO, CAOV3) MYC-HSF1 amplification
EXPERIMENT: Epigenetic inhibitor drug screen, cell viability (Cell Titer Blue)
Type: cell-based
TEST PARAMETERS: 10 uM, 48 hrs; average relative cell viability (vs 1% DMSO) of non-amplified cells (OVSAHO, CAOV3) minus that of MYC-HSF1 amplified cells (OVCAR8, OVCAR4); positive = greater response in amplified cells
Recorded Non Amp - AMP (POC) 10 uM for the following compounds
METRIC NAME: Non Amp - AMP (POC) 10 uM

compound="COc1ccccc1C(=O)Nc1cc2c(cc1N1CCCCC1)n(C)c(=O)n2C [GSK 5959]" endpoint_unit=POC experimental_value=10.99
compound="O=C(O)CNC(=O)c1c(O)c2ccccc2n(Cc2ccccc2)c1=O [IOX2(Glycine)]" endpoint_unit=POC experimental_value=10.17
compound="O=C1/C(=C/c2ccc(O)c(Br)c2)CCC/C1=C\\c1ccc(O)c(Br)c1 [HAT Inhibitor II]" endpoint_unit=POC experimental_value=−25.46
compound="CC(=O)N1c2ccc(-c3ccc(C(=O)O)cc3)cc2[C@H](Nc2ccc(Cl)cc2)C[C@@H]1C [GSK1324726A]" endpoint_unit=POC experimental_value=0.1295
compound="CC(C)N(CCCNC(=O)Nc1ccc(C(C)(C)C)cc1)C[C@H]1O[C@@H](n2ccc3c(N)ncnc32)[C@H](O)[C@@H]1O [EPZ004777]" endpoint_unit=POC experimental_value=6.632
compound="Cc1cc(Nc2cc(CN3CCOCC3)c3nc(C)c(Cc4ccc(Cl)cc4F)n3n2)n[nH]1 [LY2784544]" endpoint_unit=POC experimental_value=−1.068
compound="O=C(CCCCCCC(=O)Nc1ccc(I)cc1)NO [4-iodo-SAHA]" endpoint_unit=POC experimental_value=29.5
compound="NC(=O)c1ccccn1 [Picolinamide]" endpoint_unit=POC experimental_value=20.35
compound="CN(C)CC(=O)Nc1ccc2[nH]c(=O)c3ccccc3c2c1.Cl [PJ34 hydrochloride]" endpoint_unit=POC experimental_value=3.696
